Recorded mortality at 0.8 ppm values for a group of compounds are listed next.
- System: Nilaparvata lugens
- protocolSummary: Insecticidal activity against Nilaparvata lugens (brown planthopper) third-instar larvae assessed as mortality at 0.8 ppm applied through spray measured after 5 days
- Assay type: functional
- conditionDescription: 120 h

Query: Fill in: mortality at 0.8 ppm of CSc1ccc(Oc2ccc(CNC(=O)c3c4c(nn3C)C(C)CC4)cc2)cc1 (centres undefined) is ___
Response: 30%

Query: Fill in: mortality at 0.8 ppm of CC1CCc2c1nn(C)c2C(=O)NCc1ccc(Oc2ccc([N+](=O)[O-])cc2)cc1 (centres undefined) is ___
Response: 0%

Query: Fill in: mortality at 0.8 ppm of CC1CCc2c1nn(C)c2C(=O)NCc1ccc(Oc2ccc(C(F)(F)F)cc2)cc1 (racemic) is ___
Response: 100%

Query: Fill in: mortality at 0.8 ppm of CC1CCc2c1nn(C)c2C(=O)NCc1ccc(Oc2ccc(C#N)cc2)cc1 (centres undefined) is ___
Response: 80%

* * *

- System: Tetranychus urticae
- protocolSummary: Insecticidal activity against Tetranychus urticae (two-spotted spider mite) assessed as mortality at 3.1 ppm
- Type: functional
outcomeMeasure: mortality at 3.1 ppm (%)
// note: answer is a bare numeric in %

Below, 5 molecules whose answers are already recorded.
molecule	outcomeMeasure	reported
CSc1ccc(Oc2ccc(CNC(=O)c3c4c(nn3C)C(C)CC4)cc2)cc1 (stereo unspecified)	mortality at 3.1 ppm	80
CC1CCc2c1nn(C)c2C(=O)NCc1ccc(C(C)(C)C)cc1 (stereo unspecified)	mortality at 3.1 ppm	100
CC1CCc2c1nn(C)c2C(=O)NCc1ccc(Oc2ccc([N+](=O)[O-])cc2)cc1 (stereo unspecified)	mortality at 3.1 ppm	30
CC1CCc2c1nn(C)c2C(=O)NCc1ccc(Oc2ccc(C(F)(F)F)cc2)cc1 (racemic)	mortality at 3.1 ppm	100
CC1CCc2c1nn(C)c2C(=O)NCc1ccc(Oc2ccc(C#N)cc2)cc1 (stereo unspecified)	mortality at 3.1 ppm	100

API: the following record is the query input.
Query: Fill in: mortality at 3.1 ppm of CCc1nn(C)c(C(=O)NCc2ccc(C(C)(C)C)cc2)c1Cl [TEBUFENPYRAD] is ___
Response: 100

* * *

- Tested on: Nilaparvata lugens
- protocolSummary: Insecticidal activity against Nilaparvata lugens (brown planthopper) third-instar larvae assessed as mortality at 3.1 ppm applied through spray measured after 5 days
- Type: functional
- conditionDescription: 120 h
Recorded mortality at 3.1 ppm values for a group of molecules are listed next.
// note: answer is a bare numeric in %

Below, 3 molecules whose answers are already recorded.
molecule	outcomeMeasure	reported
CC1CCc2c1nn(C)c2C(=O)NCc1ccc(Oc2ccc(C(F)(F)F)cc2)cc1 (racemic)	mortality at 3.1 ppm	100
CC1CCc2c1nn(C)c2C(=O)NCc1ccc(Oc2ccc([N+](=O)[O-])cc2)cc1 (centres undefined)	mortality at 3.1 ppm	80
CSc1ccc(Oc2ccc(CNC(=O)c3c4c(nn3C)C(C)CC4)cc2)cc1 (centres undefined)	mortality at 3.1 ppm	30

Query: Fill in: mortality at 3.1 ppm of CC1CCc2c1nn(C)c2C(=O)NCc1ccc(Oc2ccc(C#N)cc2)cc1 (centres undefined) is ___
Response: 80

* * *

- System: Tetranychus urticae
- protocolSummary: Insecticidal activity against Tetranychus urticae (two-spotted spider mite) assessed as mortality at 12.5 ppm
- Format: functional
outcomeMeasure: mortality at 12.5 ppm (%)
// note: answer is a bare numeric in %

Below, 2 compounds whose answers are already recorded.
compound	mortality at 12.5 ppm [%]
CC1CCc2c1nn(C)c2C(=O)NCc1ccc(C(C)(C)C)cc1 (stereo unspecified)	100
CCc1nn(C)c(C(=O)NCc2ccc(C(C)(C)C)cc2)c1Cl	100

Query: Fill in: mortality at 12.5 ppm of CC1CCc2c1nn(C)c2C(=O)NCc1ccc(Oc2ccc(C(F)(F)F)cc2)cc1 (racemic) is ___
Response: 100

Query: Fill in: mortality at 12.5 ppm of CC1CCc2c1nn(C)c2C(=O)NCc1ccc(Oc2ccc(C#N)cc2)cc1 (stereo unspecified) is ___
Response: 100

Query: Fill in: mortality at 12.5 ppm of CSc1ccc(Oc2ccc(CNC(=O)c3c4c(nn3C)C(C)CC4)cc2)cc1 (stereo unspecified) is ___
Response: 100

Query: Fill in: mortality at 12.5 ppm of CC1CCc2c1nn(C)c2C(=O)NCc1ccc(Oc2ccc([N+](=O)[O-])cc2)cc1 (stereo unspecified) is ___
Response: 80

* * *

Recorded mortality at 12.5 ppm values for a group of compounds are listed next.
- Tested on: Nephotettix cincticeps
- protocolSummary: Insecticidal activity against green rice Nephotettix cincticeps (green rice leafhopper) third-instar larvae assessed as mortality at 12.5 ppm applied through spray measured after 4 days
- Format: functional
- conditionDescription: 96 h
// note: answer is a bare numeric in %

Below, 4 compounds whose answers are already recorded.
compound	testTarget	reported
CCc1cc(C(=O)NCc2ccc(Oc3ccc(C(F)(F)F)cc3)cc2)n(C)n1	Nephotettix cincticeps	100
CCc1nn(C)c(C(=O)NCc2ccc(Oc3ccc(S(C)(=O)=O)cc3)cc2)c1Cl	Nephotettix cincticeps	100
CCSc1ccc(Oc2ccc(CNC(=O)c3c(Cl)c(CC)nn3C)cc2)cc1	Nephotettix cincticeps	80
CC(C)c1nn(C)c(C(=O)NCc2ccc(Oc3ccc(C(F)(F)F)cc3)cc2)c1Cl	Nephotettix cincticeps	80

Query: Fill in: mortality at 12.5 ppm of CC1CCCc2c1nn(C)c2C(=O)NCc1ccc(Oc2ccc(C(F)(F)F)cc2)cc1 (stereo not given) is ___
Response: 100

Query: Fill in: mortality at 12.5 ppm of CCc1nn(C)c(C(=O)NCc2ccc(C(C)(C)C)cc2)c1Cl is ___
Response: 0

Query: Fill in: mortality at 12.5 ppm of CCc1nn(C)c(C(=O)NCc2ccc(Oc3ccc(OCC(F)(F)F)cc3)cc2)c1Cl is ___
Response: 30

Query: Fill in: mortality at 12.5 ppm of CSc1ccc(Oc2ccc(CNC(=O)c3c4c(nn3C)C(C)CC4)cc2)cc1 (stereo not given) is ___
Response: 100

Query: Fill in: mortality at 12.5 ppm of CCc1nn(C)c(C(=O)NCc2ccc(Oc3ccc(OC(F)F)cc3)cc2)c1Cl is ___
Response: 100

Query: Fill in: mortality at 12.5 ppm of CCc1nn(C)c(C(=O)NCc2ccc(Oc3ccc(OC(C)C)cc3)cc2)c1Cl is ___
Response: 30

Query: Fill in: mortality at 12.5 ppm of Cn1ncc(Cl)c1C(=O)NCc1ccc(Oc2ccc(C(F)(F)F)cc2)cc1 is ___
Response: 80

* * *

Recorded mortality at 12.5 ppm values for a group of compounds are listed next.
- System: Nephotettix cincticeps
- protocolSummary: Insecticidal activity against green rice Nephotettix cincticeps (green rice leafhopper) third-instar larvae assessed as mortality at 12.5 ppm applied through spray measured after 4 days
- Format: functional
- conditionDescription: 96 h
// note: answer is a bare numeric in %

Below, 3 compounds whose answers are already recorded.
compound	reported
CCc1nn(C)c(C(=O)NCc2ccc(Oc3ccc(C)cc3)cc2)c1Cl [TOLFENPYRAD]	100
CCc1nn(C)c(C(=O)NCc2ccc(Oc3ccc(C(F)(F)F)cc3)cc2)c1F	100
CCc1nn(C)c(C(=O)NCc2ccc(Oc3ccc([S+](C)[O-])cc3)cc2)c1Cl (centres undefined)	100

API: the following record is the query input.
Query: Fill in: mortality at 12.5 ppm of CC1CCc2c1nn(C)c2C(=O)NCc1ccc(C(C)(C)C)cc1 (centres undefined) is ___
Response: 30

* * *

Recorded mortality at 12.5 ppm values for a group of compounds are listed next.
- Test system: Nephotettix cincticeps
- protocolSummary: Insecticidal activity against green rice Nephotettix cincticeps (green rice leafhopper) third-instar larvae assessed as mortality at 12.5 ppm applied through spray measured after 4 days
- Type: functional
- conditionDescription: 96 h
// note: answer is a bare numeric in %

compound	testTarget	mortality at 12.5 ppm, %
CCc1ccc(Oc2ccc(CNC(=O)c3c(Cl)c(CC)nn3C)cc2)cc1	Nephotettix cincticeps	80
CCc1nn(C)c(C(=O)NCc2ccc(Oc3ccc(C(F)(F)F)cc3)cc2)c1Cl	Nephotettix cincticeps	100

Query: Form field: mortality at 12.5 ppm recorded for Cn1nc2c(c1C(=O)NCc1ccc(Oc3ccc(C(F)(F)F)cc3)cc1)CCC2 with Nephotettix cincticeps (enter value)
Response: 100

Query: Form field: mortality at 12.5 ppm recorded for CC1CCc2c1nn(C)c2C(=O)NCc1ccc(Oc2ccc(C#N)cc2)cc1 (stereo not given) with Nephotettix cincticeps (enter value)
Response: 30

Query: Form field: mortality at 12.5 ppm recorded for Cc1nn(C)c(C(=O)NCc2ccc(Oc3ccc(C(F)(F)F)cc3)cc2)c1Cl with Nephotettix cincticeps (enter value)
Response: 80

Query: Form field: mortality at 12.5 ppm recorded for CCc1nn(C)c(C(=O)NCc2ccc(Oc3ccc(OC)cc3)cc2)c1Cl with Nephotettix cincticeps (enter value)
Response: 100

Query: Form field: mortality at 12.5 ppm recorded for CCc1nn(C)c(C(=O)NCc2ccc(Oc3ccc([N+](=O)[O-])cc3)cc2)c1Cl with Nephotettix cincticeps (enter value)
Response: 100

Query: Form field: mortality at 12.5 ppm recorded for CC1CCc2c1nn(C)c2C(=O)NC(C)c1ccc(Oc2ccc(C(F)(F)F)cc2)cc1 (single isomer, unassigned; diastereomer 2) with Nephotettix cincticeps (enter value)
Response: 100

Query: Form field: mortality at 12.5 ppm recorded for CCc1nn(C)c(C(=O)NCc2ccc(Oc3ccc(Cl)cc3)cc2)c1Cl with Nephotettix cincticeps (enter value)
Response: 80

Query: Form field: mortality at 12.5 ppm recorded for CCc1nn(C)c(C(=O)NCc2ccc(Oc3ccc(C(F)(F)F)cc3)cc2)c1Br with Nephotettix cincticeps (enter value)
Response: 100

Query: Form field: mortality at 12.5 ppm recorded for CCc1nn(C)c(C(=O)NCc2ccc(Oc3ccccc3)cc2)c1Cl with Nephotettix cincticeps (enter value)
Response: 30

Query: Form field: mortality at 12.5 ppm recorded for CCc1nn(C)c(C(=O)NCc2ccc(Oc3ccc(C#N)cc3)cc2)c1Cl with Nephotettix cincticeps (enter value)
Response: 100

Query: Form field: mortality at 12.5 ppm recorded for CC1CCc2c1nn(C)c2C(=O)NCc1ccc(Oc2ccc([N+](=O)[O-])cc2)cc1 (stereo not given) with Nephotettix cincticeps (enter value)
Response: 100

Query: Form field: mortality at 12.5 ppm recorded for CCc1nn(C)c(C(=O)NCc2ccc(Oc3ccc(C(F)F)cc3)cc2)c1Cl with Nephotettix cincticeps (enter value)
Response: 100

Query: Form field: mortality at 12.5 ppm recorded for CCC1CCc2c1nn(C)c2C(=O)NCc1ccc(Oc2ccc(C(F)(F)F)cc2)cc1 (stereo not given) with Nephotettix cincticeps (enter value)
Response: 100

Query: Form field: mortality at 12.5 ppm recorded for CCc1nn(C)c(C(=O)NCc2ccc(Oc3ccc(SC)cc3)cc2)c1Cl with Nephotettix cincticeps (enter value)
Response: 100

Query: Form field: mortality at 12.5 ppm recorded for CCc1nn(C)c(C(=O)NCc2ccc(Oc3ccc(C(C)C)cc3)cc2)c1Cl with Nephotettix cincticeps (enter value)
Response: 30

Query: Form field: mortality at 12.5 ppm recorded for CC1CCc2c1nn(C)c2C(=O)NCc1ccc(Oc2ccc(C(F)(F)F)cc2)cc1 (single isomer, unassigned; (-)) with Nephotettix cincticeps (enter value)
Response: 100

Query: Form field: mortality at 12.5 ppm recorded for Cn1nc2c(c1C(=O)NCc1ccc(Oc3ccc(C(F)(F)F)cc3)cc1)CCCC2 with Nephotettix cincticeps (enter value)
Response: 80

Query: Form field: mortality at 12.5 ppm recorded for CCc1nn(C)c(C(=O)NCc2ccc(Oc3ccc(SC(C)C)cc3)cc2)c1Cl with Nephotettix cincticeps (enter value)
Response: 30
